test system: Staphylococcus aureus; test: Antibacterial activity against Staphylococcus aureus ATCC 25923 assessed as bacterial growth inhibition incubated for 20 to 24 hrs by microbroth serial dilution assay; format: functional; conditions: time 20-24 hrs
Give MIC for every item shown.
Give the number; µg/mL is assumed, so skip it.

Request: For C=C[C@]1(C)C[C@@H](OC(=O)CSc2nc(N)nc3c2ncn3C(=O)NCc2ccc(C)cc2)[C@@]2(C)C3C(=O)CC[C@@]3(CC[C@H]2C)[C@@H](C)[C@@H]1O (stereo not given in full) , what is its reported MIC?
Response: 0.125

Request: GET /values?readout=MIC&item= C=C[C@]1(C)C[C@@H](OC(=O)CSc2nc(N)nc3c2ncn3C(=O)Nc2ccccc2)[C@@]2(C)C3C(=O)CC[C@@]3(CC[C@H]2C)[C@@H](C)[C@@H]1O (stereo not given in full)
Response: 0.125

Request: What does the data say about its MIC? Entry: C=C[C@]1(C)C[C@@H](OC(=O)CSC(C)(C)CNC(=O)[C@H](N)C(C)C)[C@]2(C)[C@H](C)CC[C@]3(CCC(=O)[C@H]32)[C@@H](C)[C@@H]1O
Response: 0.25

Request: # lookup: MIC of C=C[C@]1(C)C[C@@H](OC(=O)CSc2nc(N)nc3c2ncn3C(=O)Nc2cccc(NC(=O)OC(C)(C)C)c2)[C@@]2(C)C3C(=O)CC[C@@]3(CC[C@H]2C)[C@@H](C)[C@@H]1O (stereo not given in full)
Response: 0.25

Request: For the compound shown here, C=C[C@]1(C)C[C@@H](OC(=O)CSc2nc(NC(=O)CN3CCCCC3)nc3[nH]cnc23)[C@@]2(C)C3C(=O)CC[C@@]3(CC[C@H]2C)[C@@H](C)[C@@H]1O (stereo not given in full) , give the reported MIC.
Response: 0.0625

---

test system: Staphylococcus aureus; assay: Antibacterial activity against Methicillin-resistant Staphylococcus aureus ATCC 43300 assessed as bacterial growth inhibition incubated for 20 to 24 hrs by microbroth serial dilution assay; type: functional; settings: time 20-24 hrs
Experimental readout: MIC (µg/mL)
Give the value, in units of µg/mL, as a plain number.

Request: Item under review: C=C[C@]1(C)C[C@@H](OC(=O)CSc2nc(N)nc3c2ncn3C(=O)NCc2cccc(OC)c2)[C@@]2(C)C3C(=O)CC[C@@]3(CC[C@H]2C)[C@@H](C)[C@@H]1O (some centres not stated) . Reported MIC?
Response: 0.125

Request: Look up MIC: C=C[C@]1(C)C[C@@H](OC(=O)CSc2nc(NC(=O)CN3CCOCC3)nc3[nH]cnc23)[C@@]2(C)C3C(=O)CC[C@@]3(CC[C@H]2C)[C@@H](C)[C@@H]1O (some centres not stated)
Response: 1

Request: Which MIC value belongs to C=C[C@]1(C)C[C@@H](OC(=O)CSc2nc(N)nc3c2ncn3C(=O)Nc2ccccc2Cl)[C@@]2(C)C3C(=O)CC[C@@]3(CC[C@H]2C)[C@@H](C)[C@@H]1O (some centres not stated) ?
Response: 0.125

Request: Entry under review: C=C[C@]1(C)C[C@@H](OC(=O)CSc2nc(N)nc3c2ncn3C(=O)Nc2cccc(F)c2)[C@@]2(C)C3C(=O)CC[C@@]3(CC[C@H]2C)[C@@H](C)[C@@H]1O (some centres not stated) . Reported MIC?
Response: 0.25

Request: Recorded MIC of C=C[C@]1(C)C[C@@H](OC(=O)CSCCN(CC)CC)[C@]2(C)[C@H](C)CC[C@]3(CCC(=O)[C@H]32)[C@@H](C)[C@@H]1O , please.
Response: 2

Request: What value of MIC has been reported for the following molecule? C=C[C@]1(C)C[C@@H](OC(=O)CSc2nc(NC(=O)CCl)nc3[nH]cnc23)[C@@]2(C)C3C(=O)CC[C@@]3(CC[C@H]2C)[C@@H](C)[C@@H]1O (some centres not stated)
Response: 0.5

Request: Which MIC is listed for C=C[C@]1(C)C[C@@H](OC(=O)CSc2nc(NC(=O)CN3CCN(C)CC3)nc3[nH]cnc23)[C@@]2(C)C3C(=O)CC[C@@]3(CC[C@H]2C)[C@@H](C)[C@@H]1O (some centres not stated) ?
Response: 32

---

Record form. Attribute: MIC. Fill in for each entry.
test system: Staphylococcus aureus; assay: Antibacterial activity against Methicillin-resistant Staphylococcus aureus ATCC 43300 assessed as bacterial growth inhibition incubated for 20 to 24 hrs by microbroth serial dilution assay; type: functional; conditions: time 20-24 hrs
Give the figure together with its unit, number first.

Request: Find the recorded MIC belonging to C=C[C@]1(C)C[C@@H](OC(=O)CSc2nc(N)nc3c2ncn3C(=O)OCC)[C@@]2(C)C3C(=O)CC[C@@]3(CC[C@H]2C)[C@@H](C)[C@@H]1O (stereo partly specified) and report it.
Response: 0.125 µg/mL

Request: Query (molecule): C=C[C@]1(C)C[C@@H](OC(=O)CSc2nc(N)nc3c2ncn3C(=O)Nc2ccc(F)cc2)[C@@]2(C)C3C(=O)CC[C@@]3(CC[C@H]2C)[C@@H](C)[C@@H]1O (stereo partly specified) ; field requested: MIC
Response: 0.125 µg/mL

Request: Fill blank: measured MIC of the molecule C=C[C@]1(C)C[C@@H](OC(=O)CSC(C)(C)CNC(=O)[C@H](N)C(C)C)[C@]2(C)[C@H](C)CC[C@]3(CCC(=O)[C@H]32)[C@@H](C)[C@@H]1O [VALNEMULIN] is ____.
Response: 0.125 µg/mL

Request: Tell me the measured MIC of C=C[C@]1(C)C[C@@H](OC(=O)CSc2nc(NC(=O)CN3CCC(O)CC3)nc3[nH]cnc23)[C@@]2(C)C3C(=O)CC[C@@]3(CC[C@H]2C)[C@@H](C)[C@@H]1O (stereo partly specified) , please.
Response: 32 µg/mL

Request: Request the reported MIC associated with C=C[C@]1(C)C[C@@H](OC(=O)CSc2nc(N)nc3c2ncn3C(=O)c2ccc(C)cc2)[C@@]2(C)C3C(=O)CC[C@@]3(CC[C@H]2C)[C@@H](C)[C@@H]1O (stereo partly specified)
Response: 0.25 µg/mL

Request: Entry C=C[C@]1(C)C[C@@H](OC(=O)CSc2nc(N)nc3c2ncn3C(=O)NCc2ccc(C)cc2)[C@@]2(C)C3C(=O)CC[C@@]3(CC[C@H]2C)[C@@H](C)[C@@H]1O (stereo partly specified) has what MIC?
Response: 0.0625 µg/mL

---

test system: Staphylococcus epidermidis; assay: Antibacterial activity against Methicillin-resistant Staphylococcus epidermidis ATCC 51625 assessed as bacterial growth inhibition incubated for 20 to 24 hrs by microbroth serial dilution assay; type: functional; conditions: time 20-24 hrs
Experimental readout: MIC
Number first, unit second.

Request: Entry C=C[C@]1(C)C[C@@H](OC(=O)CSc2nc(N)nc3c2ncn3C(=O)OC)[C@@]2(C)C3C(=O)CC[C@@]3(CC[C@H]2C)[C@@H](C)[C@@H]1O (stereo partly specified) has what MIC?
Response: 0.125 mg/L

Request: Could you tell me which MIC is on file for C=C[C@]1(C)C[C@@H](OC(=O)CSc2nc(N)nc3c2ncn3C(=O)CCc2ccccc2)[C@@]2(C)C3C(=O)CC[C@@]3(CC[C@H]2C)[C@@H](C)[C@@H]1O (stereo partly specified) ?
Response: 0.125 mg/L

Request: What measured MIC goes with C=C[C@]1(C)C[C@@H](OC(=O)CSc2nc(N)nc3c2ncn3C(=O)Nc2cccc(NC(=O)OC(C)(C)C)c2)[C@@]2(C)C3C(=O)CC[C@@]3(CC[C@H]2C)[C@@H](C)[C@@H]1O (stereo partly specified) ?
Response: 0.125 mg/L

Request: Please give the measured MIC for this compound: C=C[C@]1(C)C[C@@H](OC(=O)CSc2nc(N)nc3c2ncn3C(=O)c2ccc(C)cc2)[C@@]2(C)C3C(=O)CC[C@@]3(CC[C@H]2C)[C@@H](C)[C@@H]1O (stereo partly specified)
Response: 0.125 mg/L

Request: Quick check: MIC of C=C[C@]1(C)C[C@@H](OC(=O)CSc2nc(N)nc3c2ncn3C(=O)Nc2ccc(C(C)=O)cc2)[C@@]2(C)C3C(=O)CC[C@@]3(CC[C@H]2C)[C@@H](C)[C@@H]1O (stereo partly specified) ?
Response: 0.125 mg/L

Request: MIC for C=C[C@]1(C)C[C@@H](OC(=O)CSc2nc(NC(=O)CN3CCN(C)CC3)nc3[nH]cnc23)[C@@]2(C)C3C(=O)CC[C@@]3(CC[C@H]2C)[C@@H](C)[C@@H]1O (stereo partly specified) ?
Response: 1 mg/L

Request: Requested field: MIC. Item: C=C[C@]1(C)C[C@@H](OC(=O)CSc2nc(NC(=O)CNC3CCOCC3)nc3[nH]cnc23)[C@@]2(C)C3C(=O)CC[C@@]3(CC[C@H]2C)[C@@H](C)[C@@H]1O (stereo partly specified)
Response: 1 mg/L

Request: # query: MIC of entry C=C[C@]1(C)C[C@@H](OC(=O)CSC(C)(C)CNC(=O)[C@H](N)C(C)C)[C@]2(C)[C@H](C)CC[C@]3(CCC(=O)[C@H]32)[C@@H](C)[C@@H]1O
Response: 0.125 mg/L

Request: So what does the record say about MIC for C=C[C@]1(C)C[C@@H](OC(=O)CSc2nc(N)nc3c2ncn3C(=O)NCc2cccc([N+](=O)[O-])c2)[C@@]2(C)C3C(=O)CC[C@@]3(CC[C@H]2C)[C@@H](C)[C@@H]1O (stereo partly specified) ?
Response: 0.0625 mg/L

Request: # MIC lookup, item C=C[C@]1(C)C[C@@H](OC(=O)CSc2nc(N)nc3c2ncn3C(=O)Nc2cccc(F)c2)[C@@]2(C)C3C(=O)CC[C@@]3(CC[C@H]2C)[C@@H](C)[C@@H]1O (stereo partly specified)
Response: 0.125 mg/L

Request: Could you tell me which MIC is on file for C=C[C@]1(C)C[C@@H](OC(=O)CSc2nc(N)nc3c2ncn3C(=O)c2ccc(OC)cc2)[C@@]2(C)C3C(=O)CC[C@@]3(CC[C@H]2C)[C@@H](C)[C@@H]1O (stereo partly specified) ?
Response: 0.25 mg/L
